- Tested on: 290 distinct kinases tested excluding mutant variants (321 in the larger panel)
- conditions: no asterisk: panel of 290 distinct kinases
reported_metric: S35

record_smiles=COc1cc2ncnc(Sc3cccc(NC(=O)Nc4cc(C5CC5)nn4-c4ccccc4)c3)c2cc1OC reported_metric=S35 result="C (0.20 < C ≦ 0.40)"
record_smiles=COc1ccc(-n2nc(C(C)C)cc2NC(=O)Nc2cccc(Sc3ncnc4cc(OC)c(OC)cc34)c2)cc1 reported_metric=S35 result="C (0.20 < C ≦ 0.40)"
record_smiles=COc1ccc(-n2nc(C(C)C)cc2NC(=O)Nc2cccc(Oc3ncnc4cc(OC)c(OC)cc34)c2)cc1 reported_metric=S35 result="D (D > 0.40)"
record_smiles=COc1cc2ncnc(Oc3cccc(NC(=O)Nc4cc(C(C)(F)F)nn4-c4cncc(F)c4)c3)c2cc1OC reported_metric=S35 result="C (0.20 < C ≦ 0.40)"
record_smiles=COc1cc2ncnc(Sc3cccc(NC(=O)Nc4cc(C(C)(C)C)nn4-c4ccccc4C)c3)c2cc1OC reported_metric=S35 result="C (0.20 < C ≦ 0.40)"
record_smiles=COc1cc2ncnc(Oc3cccc(NC(=O)Nc4cc(C(C)(C)C)nn4-c4ccc(C)nc4)c3)c2cc1OC reported_metric=S35 result="D (D > 0.40)"
record_smiles=COc1cc2ncnc(Oc3cccc(NC(=O)Nc4cc(C(C)C)nn4-c4ccccc4)c3)c2cc1OC reported_metric=S35 result="D (D > 0.40)"
record_smiles=COc1cc2ncnc(Sc3cccc(NC(=O)Nc4cc(C(C)(C)C(F)(F)F)nn4-c4ccccc4)c3)c2cc1OC reported_metric=S35 result="D (D > 0.40)"
record_smiles=COc1cc2ncnc(Oc3cccc(NC(=O)Nc4cc(C(C)(C)C)nn4C(C)C)c3)c2cc1OC reported_metric=S35 result="C (0.20 < C ≦ 0.40)"
record_smiles=COc1cc2ncnc(Oc3cccc(NC(=O)Nc4cc(C5CCC5)nn4-c4ccccc4)c3)c2cc1OC reported_metric=S35 result="C (0.20 < C ≦ 0.40)"
record_smiles=COc1cc2ncnc(Oc3cccc(NC(=O)Nc4cc(C(C)(F)F)nn4-c4ccccc4)c3)c2cc1OC reported_metric=S35 result="C (0.20 < C ≦ 0.40)"
record_smiles=COc1cc2c(Sc3cccc(NC(=O)Nc4cc(C(C)(C)C)on4)c3)ncnc2cc1OCCN1CCN(CCO)CC1 reported_metric=S35 result="D (D > 0.40)"
record_smiles=COc1cc2ncnc(Oc3cccc(NC(=O)Nc4cc(C(C)(C)C(F)(F)F)nn4-c4ccccc4)c3)c2cc1OC reported_metric=S35 result="D (D > 0.40)"
record_smiles=COc1cc2ncnc(Oc3cccc(NC(=O)Nc4cc(C(C)(C)C)nn4C4CCCCC4)c3)c2cc1OC reported_metric=S35 result="C (0.20 < C ≦ 0.40)"
record_smiles=COc1cc2ncnc(Sc3cccc(NC(=O)Nc4cc(C5(C(F)(F)F)CC5)nn4-c4ccc(C)cc4)c3)c2cc1OC reported_metric=S35 result="D (D > 0.40)"
record_smiles=COc1cc2ncnc(Oc3cccc(NC(=O)Nc4cc(C(C)(C)CO)no4)c3)c2cc1OC reported_metric=S35 result="C (0.20 < C ≦ 0.40)"
record_smiles=COc1cc2ncnc(Sc3cccc(NC(=O)Nc4cc(C(C)(C)C)nn4-c4cccnc4)c3)c2cc1OC reported_metric=S35 result="D (D > 0.40)"
record_smiles=COc1cc2ncnc(Sc3cccc(NC(=O)Nc4cc(C(C)C)nn4-c4ccccc4)c3)c2cc1OC reported_metric=S35 result="C (0.20 < C ≦ 0.40)"
record_smiles=COc1cc2ncnc(Oc3cccc(NC(=O)Nc4cc(C5CC5)nn4-c4ccccc4)c3)c2cc1OC reported_metric=S35 result="C (0.20 < C ≦ 0.40)"
record_smiles=COc1cc2ncnc(Sc3cccc(NC(=O)Nc4cc(C(C)(F)F)nn4-c4ccccc4)c3)c2cc1OC reported_metric=S35 result="C (0.20 < C ≦ 0.40)"
record_smiles=COc1cc2ncnc(Oc3cccc(NC(=O)Nc4cc(C5(C(F)(F)F)CC5)nn4-c4ccc(C)cc4)c3)c2cc1OC reported_metric=S35 result="D (D > 0.40)"
record_smiles=COc1cc2ncnc(Oc3cccc(NC(=O)Nc4cc(C(C)(C)C)nn4-c4cccnc4C)c3)c2cc1OC reported_metric=S35 result="D (D > 0.40)"
record_smiles=COc1cc2ncnc(Oc3cccc(NC(=O)Nc4cc(C(C)(C)C)nn4-c4cccnc4)c3)c2cc1OC reported_metric=S35 result="D (D > 0.40)"
record_smiles=COc1cc2ncnc(Oc3cccc(NC(=O)Nc4cc(C(C)(C)C#N)nn4-c4ccccc4)c3)c2cc1OC reported_metric=S35 result="D (D > 0.40)"
record_smiles=COc1cc2ncnc(Oc3cccc(NC(=O)Nc4cc(C(C)(C)C)nn4-c4ccncc4)c3)c2cc1OC reported_metric=S35 result="D (D > 0.40)"
record_smiles=CCn1nc(C(C)(C)C)cc1NC(=O)Nc1cccc(Sc2ncnc3cc(OC)c(OC)cc23)c1 reported_metric=S35 result="C (0.20 < C ≦ 0.40)"
record_smiles=COc1cc2ncnc(Sc3cccc(NC(=O)Nc4cc(C(C)(C)C)nn4CC(C)C)c3)c2cc1OC reported_metric=S35 result="C (0.20 < C ≦ 0.40)"
record_smiles=COc1cc2ncnc(Oc3cccc(NC(=O)Nc4cc(C(F)(F)F)nn4-c4cccc(C)c4)c3)c2cc1OC reported_metric=S35 result="C (0.20 < C ≦ 0.40)"
record_smiles=COc1cc2ncnc(Oc3cccc(NC(=O)Nc4cc(C(C)C)nn4-c4cccnc4)c3)c2cc1OC reported_metric=S35 result="D (D > 0.40)"
record_smiles=COc1cc2ncnc(Sc3cccc(NC(=O)Nc4cc(C(C)(C)C)nn4-c4ccccc4Cl)c3)c2cc1OC reported_metric=S35 result="C (0.20 < C ≦ 0.40)"

====

- tested_on: RAF kinases (Homo sapiens, UniProt P04049)
- Sequence (P04049 whole entry): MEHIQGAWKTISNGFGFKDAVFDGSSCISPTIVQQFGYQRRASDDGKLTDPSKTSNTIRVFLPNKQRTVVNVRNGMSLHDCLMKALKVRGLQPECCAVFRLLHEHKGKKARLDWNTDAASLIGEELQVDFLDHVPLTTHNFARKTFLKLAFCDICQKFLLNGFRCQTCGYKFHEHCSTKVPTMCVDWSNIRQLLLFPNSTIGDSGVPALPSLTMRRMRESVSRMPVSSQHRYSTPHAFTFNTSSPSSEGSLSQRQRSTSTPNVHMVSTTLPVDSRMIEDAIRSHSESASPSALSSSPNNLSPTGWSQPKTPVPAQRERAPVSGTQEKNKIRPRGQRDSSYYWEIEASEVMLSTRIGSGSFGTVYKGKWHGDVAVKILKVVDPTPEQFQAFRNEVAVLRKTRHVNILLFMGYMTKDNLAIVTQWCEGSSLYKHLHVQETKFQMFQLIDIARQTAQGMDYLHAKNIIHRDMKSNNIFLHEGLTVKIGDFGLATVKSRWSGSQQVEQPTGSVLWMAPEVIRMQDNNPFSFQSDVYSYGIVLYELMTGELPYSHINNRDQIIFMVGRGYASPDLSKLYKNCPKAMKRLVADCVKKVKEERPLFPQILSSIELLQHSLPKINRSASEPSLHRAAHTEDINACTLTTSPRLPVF
- conditions: read-out: RAF1 Kd; RAF1
reported_metric: Kd

record_smiles=COc1cc2ncnc(Oc3cc(NC(=O)Nc4cc(C(C)(C)C(F)(F)F)on4)ccc3F)c2cc1OC reported_metric=Kd result="< 250 nM"
record_smiles=COc1cc2ncnc(Oc3cc(NC(=O)Nc4cc(C(C)(CF)CF)on4)ccc3F)c2cc1OC reported_metric=Kd result="< 250 nM"
record_smiles=COc1cc2ncnc(Oc3cccc(NC(=O)Nc4cc(C(C)(C)C(F)(F)F)on4)c3)c2cc1O reported_metric=Kd result="< 250 nM"
record_smiles=COc1cc2ncnc(Oc3cc(NC(=O)Nc4cc(C(C)(C)C)nn4-c4ccccc4)c(F)cc3F)c2cc1OC reported_metric=Kd result="> 1000 nM"

====

- tested_on: RAF kinases (Homo sapiens, UniProt P15056)
- Sequence (P15056 whole entry): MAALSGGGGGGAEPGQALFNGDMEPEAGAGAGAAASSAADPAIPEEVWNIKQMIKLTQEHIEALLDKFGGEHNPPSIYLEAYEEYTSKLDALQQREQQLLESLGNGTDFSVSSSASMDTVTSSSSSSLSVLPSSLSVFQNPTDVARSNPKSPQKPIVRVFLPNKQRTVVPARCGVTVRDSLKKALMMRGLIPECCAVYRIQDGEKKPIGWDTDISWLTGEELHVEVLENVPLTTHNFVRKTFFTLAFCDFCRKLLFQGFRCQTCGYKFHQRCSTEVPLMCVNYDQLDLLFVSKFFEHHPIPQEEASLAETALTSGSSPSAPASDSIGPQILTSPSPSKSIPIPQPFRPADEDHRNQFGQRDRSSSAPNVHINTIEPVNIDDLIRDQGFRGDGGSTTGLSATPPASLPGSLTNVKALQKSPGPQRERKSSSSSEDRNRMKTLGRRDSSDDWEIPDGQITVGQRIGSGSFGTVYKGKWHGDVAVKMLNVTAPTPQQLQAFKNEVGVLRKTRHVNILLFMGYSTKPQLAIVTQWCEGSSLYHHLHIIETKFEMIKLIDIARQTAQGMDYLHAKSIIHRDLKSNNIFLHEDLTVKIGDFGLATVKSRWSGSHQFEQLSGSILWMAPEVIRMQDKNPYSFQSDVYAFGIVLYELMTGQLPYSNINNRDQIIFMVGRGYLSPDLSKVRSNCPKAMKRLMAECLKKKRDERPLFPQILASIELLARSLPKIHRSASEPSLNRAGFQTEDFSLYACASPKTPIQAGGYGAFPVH
- assay_info: biochemical
pKd: −log10 of the molar value. Where a name gives a salt, the structure may show the parent alone.
List of pKd values.
reported_metric: pKd

molecule=COc1cc2ncnc(Oc3cccc(NC(=O)Nc4cc(C(C)(C)C)nn4-c4cc[nH]c(=O)c4)c3)c2cc1OC result="6.30 to 6.60"
molecule="COc1cc2c(Oc3cccc(NC(=O)Nc4cc(C(C)(C)C)on4)c3)ncnc2cc1O[C@@H]1CCNC1 [Ex 98, dihydrochloride]" result="6.30 to 6.60"
molecule=COc1cc2ncnc(Oc3cccc(NC(=O)Nc4cc(C(C)(C)C)nn4-c4cccc(Cl)c4)c3)c2cc1OC result="6.30 to 6.60"
molecule=COc1cc2c(Sc3cccc(NC(=O)Nc4cc(C(C)(C)C)on4)c3)ncnc2cc1OCCN1CCOCC1 result="6.00 to 6.30"
molecule=COc1cc2ncnc(Oc3cccc(NC(=O)Nc4cc(C(C)(C)C)nn4-c4ccncc4)c3)c2cc1OC result="6.00 to 6.30"
molecule=COCCOc1cc2ncnc(Oc3cccc(NC(=O)Nc4cc(C(C)C)no4)c3)c2cc1OC result="6.30 to 6.60"
molecule=COc1cc(NC(=O)Nc2cccc(Sc3ncnc4cc(OC)c(OC)cc34)c2)cc(C(F)(F)F)c1 result="6.00 to 6.30"

====

List of Kd values.
- tested_on: RAF kinases (Homo sapiens, UniProt P15056)
- assay_info: biochemical
reported_metric: Kd

compound="COc1cc2ncnc(Oc3cccc(NC(=O)Nc4cc(C(C)C)nn4-c4cncc(F)c4)c3)c2cc1OC [Ex 314]" tested_on="RAF kinases (Homo sapiens, UniProt P15056)" result="0.5 to 1 µM"
compound="COc1cc2ncnc(Oc3cccc(NC(=O)Nc4ccc(OC)c(C(F)(F)F)c4)c3)c2cc1OC [Ex 138]" tested_on="RAF kinases (Homo sapiens, UniProt P15056)" result="0.25 to 0.5 µM"
compound="COCCOc1cc2ncnc(Oc3cccc(NC(=O)Nc4cc(C(C)(C)C)nn4-c4ccccc4)c3)c2cc1OC [Ex 210]" tested_on="RAF kinases (Homo sapiens, UniProt P15056)" result="> 1 µM"
compound="COc1cc2ncnc(Oc3cccc(NC(=O)Nc4cc(C(C)(F)F)nn4-c4ccccc4)c3)c2cc1OC [Ex 318]" tested_on="RAF kinases (Homo sapiens, UniProt P15056)" result="0.25 to 0.5 µM"
